The measurements presented in this section are drawn from ChEMBL document CHEMBL1795253.

- Tested target: 72 kDa type IV collagenase (Homo sapiens, UniProt P08253)
- Sequence (P08253 whole entry): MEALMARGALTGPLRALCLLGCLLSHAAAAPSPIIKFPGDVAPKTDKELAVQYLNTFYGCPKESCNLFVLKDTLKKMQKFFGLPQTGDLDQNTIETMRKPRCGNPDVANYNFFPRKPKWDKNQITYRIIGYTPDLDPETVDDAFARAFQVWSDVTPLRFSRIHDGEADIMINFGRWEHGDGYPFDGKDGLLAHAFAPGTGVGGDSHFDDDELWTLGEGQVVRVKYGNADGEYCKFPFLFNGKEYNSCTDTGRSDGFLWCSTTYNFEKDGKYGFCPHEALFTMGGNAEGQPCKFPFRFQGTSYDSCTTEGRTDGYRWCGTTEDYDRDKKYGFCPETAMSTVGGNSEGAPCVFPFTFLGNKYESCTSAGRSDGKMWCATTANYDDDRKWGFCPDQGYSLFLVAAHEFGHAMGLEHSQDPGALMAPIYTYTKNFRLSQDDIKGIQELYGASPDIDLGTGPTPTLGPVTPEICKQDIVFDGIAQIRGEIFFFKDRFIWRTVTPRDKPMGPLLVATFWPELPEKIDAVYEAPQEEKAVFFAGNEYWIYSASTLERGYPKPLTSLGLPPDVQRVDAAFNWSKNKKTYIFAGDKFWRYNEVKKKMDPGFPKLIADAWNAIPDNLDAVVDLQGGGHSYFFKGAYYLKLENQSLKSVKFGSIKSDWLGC
- Assay: Inhibition of human MMP2 by fluorometric assay
Entries and their IC50
Field: numeric (nM). Do not append units.

Some solved entries appear below for comparison.
CCCCc1ccc(C#Cc2ccc(S(=O)(=O)N3CSC[C@H]3C(=O)NO)s2)cc1 = 2.5
CCCCc1ccc(C#Cc2ccc(S(=O)(=O)N[C@H](Cc3ccc(C(=O)c4ccccc4)cc3)C(=O)NO)s2)cc1 = 4
CCCCc1ccc(C#Cc2ccc(S(=O)(=O)N[C@H](Cc3csc4ccccc34)C(=O)NO)s2)cc1 = 17
CCCCc1ccc(C#Cc2ccc(S(=O)(=O)N3Cc4ccccc4C[C@@H]3C(=O)NO)s2)cc1 = 1.3
CCCCc1ccc(C#Cc2ccc(S(=O)(=O)N[C@H](Cc3ccc(OCc4ccccc4)cc3)C(=O)NO)s2)cc1 = 2.3

Please give the documented IC50 of `CCCCc1ccc(C#Cc2ccc(S(=O)(=O)NCC(=O)NO)s2)cc1`
1.5

----------
- Tested target: Interstitial collagenase (Homo sapiens, UniProt P03956)
- Sequence (P03956 whole entry): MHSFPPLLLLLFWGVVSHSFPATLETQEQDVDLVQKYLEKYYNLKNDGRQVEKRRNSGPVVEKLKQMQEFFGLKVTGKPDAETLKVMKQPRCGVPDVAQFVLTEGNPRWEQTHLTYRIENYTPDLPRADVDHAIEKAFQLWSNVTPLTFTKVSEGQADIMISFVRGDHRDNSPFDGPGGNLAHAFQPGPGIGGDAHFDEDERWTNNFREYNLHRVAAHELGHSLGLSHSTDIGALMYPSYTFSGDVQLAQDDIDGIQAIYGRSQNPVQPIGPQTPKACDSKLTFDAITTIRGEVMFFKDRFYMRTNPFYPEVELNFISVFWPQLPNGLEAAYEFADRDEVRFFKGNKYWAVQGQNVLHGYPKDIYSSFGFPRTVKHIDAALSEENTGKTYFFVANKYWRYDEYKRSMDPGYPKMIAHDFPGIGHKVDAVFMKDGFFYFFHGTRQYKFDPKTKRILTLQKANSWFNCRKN
Entries and their IC50
Field: numeric (µM). Do not append units.

Please give the documented IC50 of `CCCCc1ccc(C#Cc2ccc(S(=O)(=O)N[C@H](Cc3ccc(OCc4ccccc4)cc3)C(=O)NO)s2)cc1`
4.8

Please give the documented IC50 of `CCCCc1ccc(C#Cc2ccc(S(=O)(=O)N3Cc4ccccc4C[C@@H]3C(=O)NO)s2)cc1`
6.7

Please give the documented IC50 of `CCCCc1ccc(C#Cc2ccc(S(=O)(=O)N[C@H](Cc3ccc(C(=O)c4ccccc4)cc3)C(=O)NO)s2)cc1`
37

----------
- Tested target: Matrix metalloproteinase-14 (Homo sapiens, UniProt P50281)
Parameter: IC50 (nM)
Field: numeric (nM). Do not append units.

CCCCc1ccc(C#Cc2ccc(S(=O)(=O)N3Cc4ccccc4C[C@@H]3C(=O)NO)s2)cc1 = 112
CCCCc1ccc(C#Cc2ccc(S(=O)(=O)NCC(=O)NO)s2)cc1 = 700

Shifting focus to the compound that follows.
Please give the documented IC50 of `CCCCc1ccc(C#Cc2ccc(S(=O)(=O)N[C@H](Cc3c[nH]c4ccccc34)C(=O)NO)s2)cc1`
1700

----------
- Tested target: Stromelysin-1 (Homo sapiens, UniProt P08254)
- Sequence (P08254 whole entry): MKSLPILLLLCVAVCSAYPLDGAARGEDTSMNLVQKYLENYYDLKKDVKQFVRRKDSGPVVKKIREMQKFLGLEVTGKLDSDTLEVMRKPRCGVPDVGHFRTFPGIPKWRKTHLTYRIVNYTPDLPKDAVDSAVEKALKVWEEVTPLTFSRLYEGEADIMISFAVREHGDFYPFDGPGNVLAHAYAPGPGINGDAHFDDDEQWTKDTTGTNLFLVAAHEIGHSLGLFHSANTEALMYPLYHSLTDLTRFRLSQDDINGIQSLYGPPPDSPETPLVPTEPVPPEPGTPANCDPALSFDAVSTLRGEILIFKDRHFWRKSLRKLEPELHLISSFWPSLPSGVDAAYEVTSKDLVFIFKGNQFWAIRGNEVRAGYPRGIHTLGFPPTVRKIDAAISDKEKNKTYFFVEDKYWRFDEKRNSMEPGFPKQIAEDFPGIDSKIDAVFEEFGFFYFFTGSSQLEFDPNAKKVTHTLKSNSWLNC
Parameter: IC50 (nM)
Field: numeric (nM). Do not append units.

Some solved entries appear below for comparison.
CCCCc1ccc(C#Cc2ccc(S(=O)(=O)N[C@H](Cc3ccc(C(=O)c4ccccc4)cc3)C(=O)NO)s2)cc1 = 84
CCCCc1ccc(C#Cc2ccc(S(=O)(=O)N[C@H](Cc3ccc(OCc4ccccc4)cc3)C(=O)NO)s2)cc1 = 180
CCCCc1ccc(C#Cc2ccc(S(=O)(=O)N3CSC[C@H]3C(=O)NO)s2)cc1 = 38
CCCCc1ccc(C#Cc2ccc(S(=O)(=O)N[C@H](Cc3c[nH]c4ccccc34)C(=O)NO)s2)cc1 = 93
CCCCc1ccc(C#Cc2ccc(S(=O)(=O)NCC(=O)NO)s2)cc1 = 46
CCCCc1ccc(C#Cc2ccc(S(=O)(=O)N[C@H](Cc3csc4ccccc34)C(=O)NO)s2)cc1 = 320

Please give the documented IC50 of `CCCCc1ccc(C#Cc2ccc(S(=O)(=O)N3Cc4ccccc4C[C@@H]3C(=O)NO)s2)cc1`
11

----------
Target chain: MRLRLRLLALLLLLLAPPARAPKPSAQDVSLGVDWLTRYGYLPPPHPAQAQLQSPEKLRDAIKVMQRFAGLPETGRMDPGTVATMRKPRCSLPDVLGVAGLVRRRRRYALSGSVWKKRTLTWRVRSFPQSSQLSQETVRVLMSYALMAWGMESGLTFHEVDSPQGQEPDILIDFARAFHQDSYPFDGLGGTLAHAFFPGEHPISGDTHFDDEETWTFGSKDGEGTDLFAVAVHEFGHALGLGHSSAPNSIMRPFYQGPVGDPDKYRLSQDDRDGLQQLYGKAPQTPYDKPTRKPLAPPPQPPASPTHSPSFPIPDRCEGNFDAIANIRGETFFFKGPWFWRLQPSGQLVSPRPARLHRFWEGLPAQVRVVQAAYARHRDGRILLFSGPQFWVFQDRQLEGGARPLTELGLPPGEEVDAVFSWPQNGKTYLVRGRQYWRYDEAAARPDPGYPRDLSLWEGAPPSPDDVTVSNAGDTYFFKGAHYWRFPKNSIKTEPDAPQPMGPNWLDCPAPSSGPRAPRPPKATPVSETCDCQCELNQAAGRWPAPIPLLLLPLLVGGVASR
Exam item: assign satisfied to entries whose IC50 is below 40 nM and not satisfied to entries at or above 40 nM. Note that a value of exactly 40 nM receives not satisfied.

Use these answered entries as a reference point.
CCCCc1ccc(C#Cc2ccc(S(=O)(=O)N[C@H](Cc3ccc(OCc4ccccc4)cc3)C(=O)NO)s2)cc1 = satisfied
CCCCc1ccc(C#Cc2ccc(S(=O)(=O)N[C@H](Cc3ccc(C(=O)c4ccccc4)cc3)C(=O)NO)s2)cc1 = not satisfied
CCCCc1ccc(C#Cc2ccc(S(=O)(=O)N[C@H](Cc3csc4ccccc34)C(=O)NO)s2)cc1 = not satisfied
CCCCc1ccc(C#Cc2ccc(S(=O)(=O)NCC(=O)NO)s2)cc1 = satisfied
CCCCc1ccc(C#Cc2ccc(S(=O)(=O)N[C@H](Cc3c[nH]c4ccccc34)C(=O)NO)s2)cc1 = not satisfied
COc1ccc(S(=O)(=O)N(Cc2cccnc2)[C@@H](C(=O)NO)C(C)C)cc1.Cl [CGS-27023A] = satisfied
CCCCc1ccc(C#Cc2ccc(S(=O)(=O)N3Cc4ccccc4C[C@@H]3C(=O)NO)s2)cc1 = satisfied

Lab note: next molecule to report on.
# TODO verify IC50 < 40 nM strictly for this molecule: `CCCCc1ccc(C#Cc2ccc(S(=O)(=O)N3CSC[C@H]3C(=O)NO)s2)cc1`
not satisfied

----------
IC50 tested on Matrix metalloproteinase-14 (Homo sapiens): recorded values
Field: numeric (µM). Do not append units.

CCCCc1ccc(C#Cc2ccc(S(=O)(=O)N[C@H](Cc3ccc(C(=O)c4ccccc4)cc3)C(=O)NO)s2)cc1 = 6.6

Fetch value of IC50 on Matrix metalloproteinase-14 (Homo sapiens) for `CCCCc1ccc(C#Cc2ccc(S(=O)(=O)N3CSC[C@H]3C(=O)NO)s2)cc1` .
1.6

Fetch value of IC50 on Matrix metalloproteinase-14 (Homo sapiens) for `CCCCc1ccc(C#Cc2ccc(S(=O)(=O)N[C@H](Cc3ccc(OCc4ccccc4)cc3)C(=O)NO)s2)cc1` .
2.1

Fetch value of IC50 on Matrix metalloproteinase-14 (Homo sapiens) for `CCCCc1ccc(C#Cc2ccc(S(=O)(=O)N[C@H](Cc3csc4ccccc34)C(=O)NO)s2)cc1` .
23

----------
- Tested target: Neutrophil collagenase (Homo sapiens, UniProt P22894)
- Sequence (P22894 whole entry): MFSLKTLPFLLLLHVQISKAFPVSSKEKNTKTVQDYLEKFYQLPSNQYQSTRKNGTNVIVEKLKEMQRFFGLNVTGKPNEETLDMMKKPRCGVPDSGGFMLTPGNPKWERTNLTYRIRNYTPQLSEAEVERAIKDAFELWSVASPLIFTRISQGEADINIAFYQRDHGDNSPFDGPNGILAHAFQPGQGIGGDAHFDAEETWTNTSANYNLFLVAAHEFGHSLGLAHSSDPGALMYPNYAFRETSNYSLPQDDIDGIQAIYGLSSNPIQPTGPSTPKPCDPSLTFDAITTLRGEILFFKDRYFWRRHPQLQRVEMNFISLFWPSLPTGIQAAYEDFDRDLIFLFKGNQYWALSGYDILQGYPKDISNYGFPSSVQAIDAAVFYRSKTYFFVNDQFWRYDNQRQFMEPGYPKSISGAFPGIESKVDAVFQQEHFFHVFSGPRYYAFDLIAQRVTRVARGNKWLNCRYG
- Assay: Inhibition of human MMP8 by fluorometric assay
Parameter: pIC50
Just so you know, pIC50 here is -log10 of the concentration in molar units; reply with that number alone.

Some solved entries appear below for comparison.
CCCCc1ccc(C#Cc2ccc(S(=O)(=O)N[C@H](Cc3ccc(C(=O)c4ccccc4)cc3)C(=O)NO)s2)cc1 = 6.36
CCCCc1ccc(C#Cc2ccc(S(=O)(=O)N[C@H](Cc3csc4ccccc34)C(=O)NO)s2)cc1 = 5.77
CCCCc1ccc(C#Cc2ccc(S(=O)(=O)N3Cc4ccccc4C[C@@H]3C(=O)NO)s2)cc1 = 7.52
CCCCc1ccc(C#Cc2ccc(S(=O)(=O)N[C@H](Cc3ccc(OCc4ccccc4)cc3)C(=O)NO)s2)cc1 = 6.31

Please give the documented pIC50 of `CCCCc1ccc(C#Cc2ccc(S(=O)(=O)N[C@H](Cc3c[nH]c4ccccc34)C(=O)NO)s2)cc1`
6.55

Please give the documented pIC50 of `CCCCc1ccc(C#Cc2ccc(S(=O)(=O)N3CSC[C@H]3C(=O)NO)s2)cc1`
6.30

Please give the documented pIC50 of `CCCCc1ccc(C#Cc2ccc(S(=O)(=O)NCC(=O)NO)s2)cc1`
6.70
